biological target: AAK1 (Homo sapiens, UniProt Q2M2I8); construct: expressed in transfected cells; host or cells: HEK293F; test: HEK281 cell-based assay (phospho-mu2 Western blot in transfected HEK293F cells); conditions: HEK293F cells transfected with human AAK1 and AP2M1; 3 hours; class symbols; read-out: CBA IC50
Sequence (Q2M2I8 1-863 isoform Q2M2I8-2): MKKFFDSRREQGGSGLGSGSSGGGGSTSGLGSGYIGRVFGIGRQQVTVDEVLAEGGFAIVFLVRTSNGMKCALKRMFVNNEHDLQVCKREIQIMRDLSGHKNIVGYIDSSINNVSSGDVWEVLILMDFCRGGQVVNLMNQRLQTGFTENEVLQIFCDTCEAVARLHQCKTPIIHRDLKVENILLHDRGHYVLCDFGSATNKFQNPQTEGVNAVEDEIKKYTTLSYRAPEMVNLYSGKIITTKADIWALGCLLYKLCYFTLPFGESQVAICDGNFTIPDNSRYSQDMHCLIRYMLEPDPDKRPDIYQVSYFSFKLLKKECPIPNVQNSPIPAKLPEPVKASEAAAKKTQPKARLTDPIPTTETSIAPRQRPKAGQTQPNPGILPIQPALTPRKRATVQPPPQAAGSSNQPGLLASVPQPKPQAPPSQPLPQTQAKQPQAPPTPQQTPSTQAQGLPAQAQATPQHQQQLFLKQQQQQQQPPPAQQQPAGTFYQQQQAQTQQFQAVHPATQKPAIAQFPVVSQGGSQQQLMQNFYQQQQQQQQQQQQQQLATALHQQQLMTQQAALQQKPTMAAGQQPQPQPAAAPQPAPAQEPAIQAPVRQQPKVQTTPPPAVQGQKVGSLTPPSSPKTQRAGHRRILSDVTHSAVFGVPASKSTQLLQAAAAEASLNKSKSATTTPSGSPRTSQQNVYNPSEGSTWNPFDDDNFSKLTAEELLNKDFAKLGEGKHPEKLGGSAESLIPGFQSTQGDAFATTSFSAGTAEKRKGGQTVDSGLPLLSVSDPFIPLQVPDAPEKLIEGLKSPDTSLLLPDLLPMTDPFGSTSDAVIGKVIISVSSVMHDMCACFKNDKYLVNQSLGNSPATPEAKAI
pIC50: −log10 of the molar value.
MEASUREMENT KIND: pIC50

[
  {
    "SUBSTANCE SMILES": "COc1ccc(F)cc1-c1cnn2ccc(-c3ccn(CCC(F)(F)F)c(=O)c3)nc12",
    "ASSAYED SYSTEM": "AAK1 (Homo sapiens, UniProt Q2M2I8)",
    "MEASUREMENT KIND": "pIC50",
    "READING": "≥ 8.00"
  },
  {
    "SUBSTANCE SMILES": "CC(C)CCn1ccc(-c2ccn3ncc(Br)c3n2)cc1=O",
    "ASSAYED SYSTEM": "AAK1 (Homo sapiens, UniProt Q2M2I8)",
    "MEASUREMENT KIND": "pIC50",
    "READING": "≥ 8.00"
  },
  {
    "SUBSTANCE SMILES": "COc1ncccc1-c1cnn2ccc(-c3ccn(CCN4CCOCC4)c(=O)c3)nc12",
    "ASSAYED SYSTEM": "AAK1 (Homo sapiens, UniProt Q2M2I8)",
    "MEASUREMENT KIND": "pIC50",
    "READING": "≥ 8.00"
  },
  {
    "SUBSTANCE SMILES": "COc1ncccc1-c1cnn2ccc(-c3ccc(C(=O)OC(C)C)cc3)nc12",
    "ASSAYED SYSTEM": "AAK1 (Homo sapiens, UniProt Q2M2I8)",
    "MEASUREMENT KIND": "pIC50",
    "READING": "≥ 8.00"
  },
  {
    "SUBSTANCE SMILES": "CC(C)(C)CCn1ccc(-c2ccn3ncc(Br)c3n2)cc1=O",
    "ASSAYED SYSTEM": "AAK1 (Homo sapiens, UniProt Q2M2I8)",
    "MEASUREMENT KIND": "pIC50",
    "READING": "≥ 7.00"
  },
  {
    "SUBSTANCE SMILES": "COc1ncc(F)cc1-c1cnn2ccc(-c3ccn(CCC(C)(C)C)c(=O)c3)nc12",
    "ASSAYED SYSTEM": "AAK1 (Homo sapiens, UniProt Q2M2I8)",
    "MEASUREMENT KIND": "pIC50",
    "READING": "≥ 8.00"
  },
  {
    "SUBSTANCE SMILES": "CC(C)OC(=O)c1ccc(-c2ccn3ncc(I)c3n2)cc1",
    "ASSAYED SYSTEM": "AAK1 (Homo sapiens, UniProt Q2M2I8)",
    "MEASUREMENT KIND": "pIC50",
    "READING": "≥ 7.00"
  },
  {
    "SUBSTANCE SMILES": "CC(C)(C)OC(=O)N1CC=C(c2ccn3nccc3n2)CC1",
    "ASSAYED SYSTEM": "AAK1 (Homo sapiens, UniProt Q2M2I8)",
    "MEASUREMENT KIND": "pIC50",
    "READING": "≥ 7.00"
  },
  {
    "SUBSTANCE SMILES": "CC(C)CCn1ccc(-c2ccn3nccc3n2)cc1=O",
    "ASSAYED SYSTEM": "AAK1 (Homo sapiens, UniProt Q2M2I8)",
    "MEASUREMENT KIND": "pIC50",
    "READING": "≥ 7.00"
  },
  {
    "SUBSTANCE SMILES": "COc1nc(C)ccc1-c1cnn2ccc(-c3ccn(CCC(C)C)c(=O)c3)nc12",
    "ASSAYED SYSTEM": "AAK1 (Homo sapiens, UniProt Q2M2I8)",
    "MEASUREMENT KIND": "pIC50",
    "READING": "≥ 8.00"
  },
  {
    "SUBSTANCE SMILES": "COc1cc(-c2ccn3ncc(-c4cc(F)ccc4OC)c3n2)ccn1",
    "ASSAYED SYSTEM": "AAK1 (Homo sapiens, UniProt Q2M2I8)",
    "MEASUREMENT KIND": "pIC50",
    "READING": "≥ 8.00"
  }
]

====

biological target: AAK1 (full-length human protein) (Homo sapiens); construct: NP_055726.2; test: P81 filter plate assay; format: biochemical; details: 0.2 nM 2x AAK1, Mu2 substrate, 33P-ATP; class symbols
Sequence (Q2M2I8 1-863 isoform Q2M2I8-2): as above
pIC50: −log10 of the molar value.

[
  {
    "SUBSTANCE SMILES": "COc1ncccc1-c1cnn2ccc(C3=CCN(C(=O)OC(C)C)CC3)nc12",
    "ASSAYED SYSTEM": "AAK1 (full-length human protein) (Homo sapiens)",
    "pIC50": "≥ 8.00"
  },
  {
    "SUBSTANCE SMILES": "COc1ncccc1-c1cnn2ccc(-c3ccn(CCC(F)(F)F)c(=O)c3)nc12",
    "ASSAYED SYSTEM": "AAK1 (full-length human protein) (Homo sapiens)",
    "pIC50": "≥ 8.00"
  },
  {
    "SUBSTANCE SMILES": "COc1ncccc1-c1cnn2ccc(-c3ccnc(OC(C)C)c3)nc12",
    "ASSAYED SYSTEM": "AAK1 (full-length human protein) (Homo sapiens)",
    "pIC50": "≥ 7.00"
  },
  {
    "SUBSTANCE SMILES": "COc1ncc(F)cc1-c1cnn2ccc(-c3ccn(CCC(C)C)c(=O)c3)nc12",
    "ASSAYED SYSTEM": "AAK1 (full-length human protein) (Homo sapiens)",
    "pIC50": "≥ 8.00"
  },
  {
    "SUBSTANCE SMILES": "COc1ncc(F)cc1-c1cnn2ccc(-c3ccn(CCC(F)(F)F)c(=O)c3)nc12",
    "ASSAYED SYSTEM": "AAK1 (full-length human protein) (Homo sapiens)",
    "pIC50": "≥ 8.00"
  },
  {
    "SUBSTANCE SMILES": "COc1ccc(F)cc1-c1cnn2ccc(-c3ccn(CCC(C)C)c(=O)c3)nc12",
    "ASSAYED SYSTEM": "AAK1 (full-length human protein) (Homo sapiens)",
    "pIC50": "≥ 8.00"
  },
  {
    "SUBSTANCE SMILES": "COc1ncccc1-c1cnn2ccc(-c3ccn(CCOC(C)C)c(=O)c3)nc12",
    "ASSAYED SYSTEM": "AAK1 (full-length human protein) (Homo sapiens)",
    "pIC50": "≥ 7.00"
  },
  {
    "SUBSTANCE SMILES": "COc1ncccc1-c1cnn2ccc(-c3ccn(CCC(C)C)c(=O)c3)nc12",
    "ASSAYED SYSTEM": "AAK1 (full-length human protein) (Homo sapiens)",
    "pIC50": "≥ 8.00"
  }
]

====

biological target: AAK1 (full-length human protein) (Homo sapiens); construct: NP_055726.2; test: P81 filter plate assay; assay type: biochemical; settings: 0.2 nM 2x AAK1, Mu2 substrate, 33P-ATP; class symbols
pIC50: −log10 of the molar value.

[
  {
    "SUBSTANCE SMILES": "COc1cc(-c2ccn3ncc(-c4cc(F)ccc4OC)c3n2)ccn1",
    "pIC50": "≥ 6.00"
  },
  {
    "SUBSTANCE SMILES": "COc1ncc(F)cc1-c1cnn2ccc(-c3ccn(CCC(C)(C)C)c(=O)c3)nc12",
    "pIC50": "≥ 8.00"
  },
  {
    "SUBSTANCE SMILES": "COc1ncccc1-c1cnn2ccc(-c3ccn(CCN4CCOCC4)c(=O)c3)nc12",
    "pIC50": "≥ 8.00"
  },
  {
    "SUBSTANCE SMILES": "COc1ncccc1-c1cnn2ccc(-c3ccn(CC(C)C)c(=O)c3)nc12",
    "pIC50": "≥ 8.00"
  },
  {
    "SUBSTANCE SMILES": "COc1ccc(F)cc1-c1cnn2ccc(-c3ccn(CC(C)C)c(=O)c3)nc12",
    "pIC50": "≥ 8.00"
  }
]

====

biological target: AAK1 (Homo sapiens, UniProt Q2M2I8); construct: expressed in transfected cells; host or cells: HEK293F; experiment: HEK281 cell-based assay (phospho-mu2 Western blot in transfected HEK293F cells); conditions: HEK293F cells transfected with human AAK1 and AP2M1; 3 hours; class symbols; read-out: CBA IC50
pIC50: −log10 of the molar value.
# pIC50 values compiled below

[
  {
    "SUBSTANCE SMILES": "COc1nc(C)ccc1-c1cnn2ccc(-c3ccn(CCC(F)(F)F)c(=O)c3)nc12",
    "ASSAYED SYSTEM": "AAK1 (Homo sapiens, UniProt Q2M2I8)",
    "pIC50": "≥ 8.00"
  },
  {
    "SUBSTANCE SMILES": "COc1ncccc1-c1cnn2ccc(-c3ccn(CCOC(C)C)c(=O)c3)nc12",
    "ASSAYED SYSTEM": "AAK1 (Homo sapiens, UniProt Q2M2I8)",
    "pIC50": "≥ 8.00"
  },
  {
    "SUBSTANCE SMILES": "CC(C)CCn1ccc(-c2ccn3ncc(C(F)(F)F)c3n2)cc1=O",
    "ASSAYED SYSTEM": "AAK1 (Homo sapiens, UniProt Q2M2I8)",
    "pIC50": "≥ 7.00"
  },
  {
    "SUBSTANCE SMILES": "COc1ncccc1-c1cnn2ccc(CCCCN(C)C(=O)OC(C)C)nc12",
    "ASSAYED SYSTEM": "AAK1 (Homo sapiens, UniProt Q2M2I8)",
    "pIC50": "≥ 7.00"
  },
  {
    "SUBSTANCE SMILES": "COc1ccc(F)cc1-c1cnn2ccc(-c3ccn(CCC(C)C)c(=O)c3)nc12",
    "ASSAYED SYSTEM": "AAK1 (Homo sapiens, UniProt Q2M2I8)",
    "pIC50": "≥ 8.00"
  },
  {
    "SUBSTANCE SMILES": "COc1ncc(F)cc1-c1cnn2ccc(-c3ccn(CCC(C)C)c(=O)c3)nc12",
    "ASSAYED SYSTEM": "AAK1 (Homo sapiens, UniProt Q2M2I8)",
    "pIC50": "≥ 8.00"
  },
  {
    "SUBSTANCE SMILES": "COc1ncccc1-c1cnn2ccc(C3=CCN(C(=O)OC(C)C)CC3)nc12",
    "ASSAYED SYSTEM": "AAK1 (Homo sapiens, UniProt Q2M2I8)",
    "pIC50": "≥ 8.00"
  },
  {
    "SUBSTANCE SMILES": "COc1ncccc1-c1cnn2ccc(-c3ccn(CCC(C)(C)C)c(=O)c3)nc12",
    "ASSAYED SYSTEM": "AAK1 (Homo sapiens, UniProt Q2M2I8)",
    "pIC50": "≥ 8.00"
  },
  {
    "SUBSTANCE SMILES": "COc1ncc(F)cc1-c1cnn2ccc(-c3ccn(CCC(F)(F)F)c(=O)c3)nc12",
    "ASSAYED SYSTEM": "AAK1 (Homo sapiens, UniProt Q2M2I8)",
    "pIC50": "≥ 8.00"
  },
  {
    "SUBSTANCE SMILES": "COc1ccc(F)cc1-c1cnn2ccc(-c3ccn(CCC(C)(C)C)c(=O)c3)nc12",
    "ASSAYED SYSTEM": "AAK1 (Homo sapiens, UniProt Q2M2I8)",
    "pIC50": "≥ 8.00"
  },
  {
    "SUBSTANCE SMILES": "COc1ncccc1-c1cnn2ccc(-c3ccn(CCC(F)(F)F)c(=O)c3)nc12",
    "ASSAYED SYSTEM": "AAK1 (Homo sapiens, UniProt Q2M2I8)",
    "pIC50": "≥ 8.00"
  },
  {
    "SUBSTANCE SMILES": "COc1ccc(F)cc1-c1cnn2ccc(-c3ccn(CC(C)C)c(=O)c3)nc12",
    "ASSAYED SYSTEM": "AAK1 (Homo sapiens, UniProt Q2M2I8)",
    "pIC50": "≥ 8.00"
  },
  {
    "SUBSTANCE SMILES": "CC(C)OC(=O)c1ccc(-c2ccn3ncc(Br)c3n2)cc1",
    "ASSAYED SYSTEM": "AAK1 (Homo sapiens, UniProt Q2M2I8)",
    "pIC50": "≥ 7.00"
  },
  {
    "SUBSTANCE SMILES": "COc1ncccc1-c1cnn2ccc(-c3ccn(CCC(C)C)c(=O)c3)nc12",
    "ASSAYED SYSTEM": "AAK1 (Homo sapiens, UniProt Q2M2I8)",
    "pIC50": "≥ 8.00"
  },
  {
    "SUBSTANCE SMILES": "COCCn1ccc(-c2ccn3ncc(-c4cccnc4OC)c3n2)cc1=O",
    "ASSAYED SYSTEM": "AAK1 (Homo sapiens, UniProt Q2M2I8)",
    "pIC50": "≥ 8.00"
  },
  {
    "SUBSTANCE SMILES": "CC(C)OC(=O)c1ccc(-c2ccn3nccc3n2)cc1",
    "ASSAYED SYSTEM": "AAK1 (Homo sapiens, UniProt Q2M2I8)",
    "pIC50": "≥ 6.00"
  },
  {
    "SUBSTANCE SMILES": "COc1ncccc1-c1cnn2ccc(-c3ccn(CC(C)C)c(=O)c3)nc12",
    "ASSAYED SYSTEM": "AAK1 (Homo sapiens, UniProt Q2M2I8)",
    "pIC50": "≥ 8.00"
  }
]
